Values compiled from paper PMC6874057.

# Tested on: HepG2
# EXPERIMENTAL_PROTOCOL: MTT cell viability assay, HepG2
# Assay type: cell-based, human
# TEST_SETTINGS: Homo sapiens, HepG2, 48 h, mean ± SE
pIC50: −log10 of the molar value.
VALUE_TYPE: pIC50

NC(=O)c1cc(C(=O)/C=C/c2ccccc2)ccc1O [a5] :: 4.17
NC(=O)c1cc(C(=O)/C=C/c2cccc(Br)c2)ccc1O [a3] :: 4.15
COc1cccc(/C=C/C(=O)c2ccc(O)c(C(N)=O)c2)c1 [a10] :: 4.15
